System: NCI-H1944
Assay: normalised cell viability (NPI; 0 = phenylarsine oxide control, 1 = DMSO control) (fraction of DMSO control); higher = more viable cells (less compound toxicity)
Conditions: glucocorticoid arm: hydrocortisone 2.75 uM co-treatment; compound 5 µM; 6 days
Structures can show the parent of a compound that is named as a salt. Over roughly 1,900 compounds, “normalised cell viability (NPI; 0 = phenylarsine oxide control, 1 = DMSO control)” has its median near 1; the lowest 2% begin near 0.039. Many of the other results were omitted from the sample, so the lowest values are more common in it than they were.
molecules and their reported normalised cell viability

molecule: C[C@H]1OC[C@@H](C[N+](C)(C)C)O1 [(+)-cis-Dioxolane]
normalised cell viability: 1.02
//
molecule: CCc1c(C(=O)OC)ncc2[nH]c3cc(OC)c(OC)cc3c12 [Methyl 6,7-dimethoxy-4-ethyl-beta-carboline-3-carboxylate]
normalised cell viability: 1.02
//
molecule: CCCN(CCC)[C@@H]1CCc2c(F)ccc(O)c2C1 [R(+)-UH-301 hydrochloride]
normalised cell viability: 1.02
//
molecule: C=CCN(C1=NCCN1)c1c(Cl)cccc1Cl [Alinidine]
normalised cell viability: 0.992
//
molecule: Cc1nc(-c2ccc(-c3ccc(C(=O)N4CCc5cc6c(cc54)C4(CCN(C)CC4)CO6)cc3)c(C)c2)no1
normalised cell viability: 0.356
//
molecule: COc1cc(C(O)CN)ccc1O (racemic) [(±)-Normetanephrine hydrochloride]
normalised cell viability: 1.01
//
molecule: C[Se]C[C@H](N)C(=O)O [Se-(methyl)selenocysteine hydrochloride]
normalised cell viability: 1.02
//
molecule: CN1CC[C@]2(CCN3CCc4c(oc5ccccc45)[C@@H]3C2)N(C)C1=O
normalised cell viability: 0.974

----------
System: NCI-H1944
Experiment: normalised cell viability (NPI; 0 = phenylarsine oxide control, 1 = DMSO control) (fraction of DMSO control); higher = more viable cells (less compound toxicity)
Conditions: glucocorticoid arm: vehicle; compound 5 µM; 6 days
The full ranking holds about 1,900 compounds; the median of “normalised cell viability (NPI; 0 = phenylarsine oxide control, 1 = DMSO control)” is about 1, and the lowest 2% start at about 0.039. This excerpt belongs to a sample that is enriched for the lowest values.
Below: a set of entries, each annotated with reported normalised cell viability.

molecule: NC(CP(=O)(O)O)C(=O)O (racemic) [(±)-2-Amino-3-phosphonopropionic acid]
normalised cell viability: 0.998
//
molecule: C=CCN(C1=NCCN1)c1c(Cl)cccc1Cl [Alinidine]
normalised cell viability: 0.991
//
molecule: O=[N+]([O-])c1ccc(O[C@@H]2O[C@H](CO)[C@@H](O)[C@H](O)[C@H]2F)c([N+](=O)[O-])c1 [2,4-Dinitrophenyl 2-fluoro-2-deoxy-beta-D-glucopyranoside]
normalised cell viability: 0.982
//
molecule: CNc1ccc2oc(C[C@H]3O[C@@]4(CC[C@H]3C)O[C@H]([C@H](C)C(=O)c3ccc[nH]3)[C@H](C)C[C@H]4C)nc2c1C(=O)O [Calcimycin]
normalised cell viability: 0.0377

----------
System: NCI-H1944;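 note: CTB read-out in 384-well plates, triplicate wells, NPI normalised per plate against 1 µM phenylarsine oxide (0) and 0.1% DMSO (1) controls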
Experiment: normalised cell viability (NPI; 0 = phenylarsine oxide control, 1 = DMSO control) (fraction of DMSO control); NCI-H1944 is a non-small cell lung cancer line; higher = more viable cells (less compound toxicity)
Settings: glucocorticoid arm: hydrocortisone 2.75 uM co-treatment; compound 1 µM; 6 days
Structures can show the parent of a compound that is named as a salt. In all, about 1,900 compounds were measured (“normalised cell viability (NPI; 0 = phenylarsine oxide control, 1 = DMSO control)”: median about 1, lowest 2% from about 0.039 on). Shown is part of a subset that was picked to be rich in the lowest values.
Known normalised cell viability of a selection of compounds
measured.metric: normalised cell viability

compound: CN[C@@H]1C[C@@H](c2ccc(Cl)c(Cl)c2)c2ccccc21 [Indatraline hydrochloride]
measured.metric: normalised cell viability
measured.value: 1

compound: C=C(C)[C@H]1Cc2c(ccc3c2O[C@@H]2COc4cc(OC)c(OC)cc4[C@@H]2C3=O)O1 [Rotenone]
measured.metric: normalised cell viability
measured.value: 0.627

compound: N=C(NCCC[C@H](N)C(=O)O)N[N+](=O)[O-] [NG-Nitro-L-arginine]
measured.metric: normalised cell viability
measured.value: 1

compound: CN1CCN(c2ccc([N+](=O)[O-])c3no[n+]([O-])c23)CC1
measured.metric: normalised cell viability
measured.value: 0.984

compound: NCc1cc(O)no1 [Muscimol hydrobromide]
measured.metric: normalised cell viability
measured.value: 1.01

compound: Cc1nc(-c2ccc(-c3ccc(C(=O)N4CCc5cc6c(cc54)C4(CCN(C)CC4)CO6)cc3)c(C)c2)no1
measured.metric: normalised cell viability
measured.value: 0.994

compound: O=C(O)[C@@H]1[C@H](C(=O)O)[C@H]2CC[C@@H]1O2 [Endothall]
measured.metric: normalised cell viability
measured.value: 1.01

compound: CN1CCCCC1Cn1cc(C(=O)c2cc([N+](=O)[O-])ccc2I)c2ccccc21 (centres undefined)
measured.metric: normalised cell viability
measured.value: 1.02

compound: COc1ccc2c3c1O[C@H]1C(=O)CC[C@@]4(O)C(C2)N(CC2CC2)CCC314 (some centres undefined) [3-Methoxynaltrexone hydrochloride]
measured.metric: normalised cell viability
measured.value: 0.992
